Hey, just so you know, these numbers are from patent US8658646B2.

- System: JAK3: Recombinant human kinase domain (Homo sapiens, UniProt P52333)
- Construct: JAK3: Recombinant human kinase domain from Millipore (Cat #14-629) or prepared; purchased Millipore 14-629
- Sequence (P52333 822-1111 limits assumed): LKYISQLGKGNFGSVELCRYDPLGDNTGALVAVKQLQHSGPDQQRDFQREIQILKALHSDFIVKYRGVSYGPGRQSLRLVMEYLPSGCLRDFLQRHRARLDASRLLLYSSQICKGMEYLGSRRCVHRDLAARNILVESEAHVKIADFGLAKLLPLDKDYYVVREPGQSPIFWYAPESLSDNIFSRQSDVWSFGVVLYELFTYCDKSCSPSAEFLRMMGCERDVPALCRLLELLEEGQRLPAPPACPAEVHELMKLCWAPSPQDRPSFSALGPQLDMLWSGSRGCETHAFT
- Test protocol: Determination of IC50 of Janus Kinase (JAK) inhibition, radioactive end-point 33P-ATP assay, JAK3
- Format: biochemical
- Run parameters: ATP 1.5 uM, peptide 50 uM, 20 minutes, read-out: JAK3-INHIB-DR/v1~NO ADDITIVE~Enzyme_Conc = 100
Each record is given Yes if its reported IC50 is strictly below 3 nM. Records at or above 3 nM are given No.

Example results:
Compound	System	Discrete label
C[C@H](NC(=O)c1c[nH]c2ncc(-c3nn(C)c4cc(Cl)ccc34)nc12)C1CC1 [Example I-140]	JAK3: Recombinant human kinase domain (Homo sapiens, UniProt P52333)	Yes
CCC[C@@H](NC(=O)c1c[nH]c2ncc(-c3nn(C)c4cc(F)ccc34)nc12)C(=O)N1CC(F)C1 [Example I-59]	JAK3: Recombinant human kinase domain (Homo sapiens, UniProt P52333)	No
COC[C@H](C)NC(=O)c1c[nH]c2ncc(-c3nn(C)c4cc(F)c(F)cc34)nc12 [Example I-212]	JAK3: Recombinant human kinase domain (Homo sapiens, UniProt P52333)	Yes
C[C@@H](NC(=O)c1c[nH]c2ncc(-c3nn(C)c4cc(F)ccc34)nc12)C(C)(F)F [Example I-56]	JAK3: Recombinant human kinase domain (Homo sapiens, UniProt P52333)	No

Quick check: does [2H]C([2H])([2H])OC[C@H](C)NC(=O)c1c[nH]c2ncc(-c3nn(C)c4cc(F)ccc34)nc12 [Example I-182] have IC50 under 3 nM? Yes

----------
- System: JAK3: Recombinant human kinase domain (Homo sapiens, UniProt P52333)
- Construct: JAK3: Recombinant human kinase domain from Millipore (Cat #14-629) or prepared; purchased Millipore 14-629
- Test protocol: Determination of IC50 of Janus Kinase (JAK) inhibition, radioactive end-point 33P-ATP assay, JAK3
- Format: biochemical
- Run parameters: ATP 1.5 uM, peptide 50 uM, 20 minutes, read-out: JAK3-INHIB-DR/v1~NO ADDITIVE~Enzyme_Conc = 100
The following compounds are listed with their measured IC50 values.
Give the quantity in nM, number only.

Example entries begin here.
Compound	System	Metric	Readout value
Cn1nc(-c2cnc3[nH]cc(C(=O)N[C@@H]4CCC[C@@H](C#N)C4)c3n2)c2ccc(Cl)cc21 (relative stereo) [Example I-156]	JAK3: Recombinant human kinase domain (Homo sapiens, UniProt P52333)	IC50	5.47
C[C@@H](NC(=O)c1c[nH]c2ncc(-c3nn(CC(=O)N4CCOCC4)c4cc(Cl)ccc34)nc12)C(=O)N1CC(C#N)C1 [Example I-228]	JAK3: Recombinant human kinase domain (Homo sapiens, UniProt P52333)	IC50	2.11

Now take the following compound into account.
Entry CC(NC(=O)c1c[nH]c2ncc(-c3nn(C)c4cc(F)ccc34)nc12)c1ccno1 (stereo not drawn) [Example I-55] , tested on JAK3: Recombinant human kinase domain (Homo sapiens, UniProt P52333), has a reported IC50 of 16.9

----------
- System: JAK3: Recombinant human kinase domain (Homo sapiens, UniProt P52333)
- Construct: JAK3: Recombinant human kinase domain from Millipore (Cat #14-629) or prepared
- Test protocol: Determination of IC50 of Janus Kinase (JAK) inhibition, radioactive end-point 33P-ATP assay, JAK3
- Run parameters: ATP 1.5 uM, peptide 50 uM, 20 minutes, read-out: JAK3-INHIB-DR/v1~NO ADDITIVE~Enzyme_Conc = 100
Metric: pIC50
Just the number, please; pIC50 means minus log10 of the concentration in mol/L.

Molecule	Readout value
C[C@@H](NC(=O)c1c[nH]c2ncc(-c3nn(CCc4ccccn4)c4cc(Cl)ccc34)nc12)C(=O)N1CC(C#N)C1 [Example I-232]	8.45

Noted for C[C@@H](NC(=O)c1c[nH]c2ncc(-c3nn(C)c4cc(F)ccc34)nc12)c1nc(CC#N)co1 [Example I-62] : its pIC50 reads 7.82

Record summary for Cc1ccc2c(-c3cnc4[nH]cc(C(=O)N[C@H](C)C(=O)N5CC(C#N)C5)c4n3)nn(C)c2c1 [Example I-82] : reported pIC50 = 8.87

Entry C[C@@H](NC(=O)c1c[nH]c2ncc(-c3nn(C)c4cc(F)ccc34)nc12)C(C)(C)F [Example I-44] — recorded pIC50 = 7.86

The molecule identified as CC(O)Cn1nc(-c2cnc3[nH]cc(C(=O)N[C@H](C)C(=O)N4CC(C#N)C4)c3n2)c2ccc(Cl)cc21 (stereo partly drawn) [Example I-95] registered its pIC50 at 8.32

The recorded pIC50 for C[C@@H](NC(=O)c1c[nH]c2ncc(-c3nn(C)c4c(F)c(F)ccc34)nc12)C(=O)N1CC(C#N)C1 [Example I-86] is 9.13

Lab book: pIC50 of COC[C@H](CC(C)C)NC(=O)c1c[nH]c2ncc(-c3nn(C)c4cc(F)ccc34)nc12 [Example I-179] noted as 8.23

----------
- System: JAK3: Recombinant human kinase domain (Homo sapiens)
- Construct: JAK3: Recombinant human kinase domain from Millipore (Cat #14-629) or prepared
- Test protocol: Determination of IC50 of Janus Kinase (JAK) inhibition, radioactive end-point 33P-ATP assay, JAK3
- Run parameters: ATP 1.5 uM, peptide 50 uM, 20 minutes, read-out: JAK3-INHIB-DR/v1~NO ADDITIVE~Enzyme_Conc = 100
Metric: pIC50
# pIC50 is unitless: minus log10 of the molar concentration; print number only

Compound	Readout value
CN(C)CCn1nc(-c2cnc3[nH]cc(C(=O)NC(C)(C)C)c3n2)c2ccc(F)cc21	6.80
C[C@@H](NC(=O)c1c[nH]c2ncc(-c3nn(CCN(C)C)c4cc(Cl)ccc34)nc12)C(=O)N1CC(C#N)C1 [Example I-230]	7.91
N#CC1CCN(C(=O)[C@H](NC(=O)c2c[nH]c3ncc(-n4ncc5cc(Cl)c(Cl)cc54)nc23)C2CC2)CC1	8.24

--- query ---
For C[C@H](CO)NC(=O)c1c[nH]c2ncc(-c3nn(C)c4cc(Cl)ccc34)nc12 the compound record lists pIC50 as 7.26

----------
- System: recombinant human SYK360-635 (Homo sapiens, UniProt P43405)
- Construct: made in house
- Test protocol: Determination of IC50 of Spleen Tyrosine Kinase (SYK) inhibition, 33P ATP filtration assay
- Assay type: biochemical
- Run parameters: SYK aa 360-635 0.5 nM; ATP 20 μM, peptide 5 μM, 0.1% BSA; read-out: SYK_ENZYME_FILTRATION/v1, BSA
Metric: IC50 (nM)
Provide only the numeric value, understood in nM.

Compound	System	Metric	Readout value
Cn1nc(-c2cnc3[nH]cc(C(=O)NC(C)(C)CO)c3n2)c2ccc(C#N)cc21	recombinant human SYK360-635 (Homo sapiens, UniProt P43405)	IC50	12.2
CC(C)(C)NC(=O)c1c[nH]c2ncc(-c3nn(CC4CCNC4)c4ccc(OC(F)F)cc34)nc12 (centres unmarked)	recombinant human SYK360-635 (Homo sapiens, UniProt P43405)	IC50	8.62

Reported IC50 ( Cn1nc(-c2cnc3[nH]cc(C(=O)NC4CCCC(N)C4)c3n2)c2ccc(Cl)cc21 (centres unmarked) [Example I-169] ) = 12

So for Cc1ccc2c(-c3cnc4[nH]cc(C(=O)NC(C)(C)CO)c4n3)nn(C)c2c1 , the logged IC50 turned out to be 8.95

Notebook: Cn1nc(-c2cnc3[nH]cc(C(=O)NC(C)(C)C)c3n2)c2cc(C#N)ccc21 , IC50 read as 6.85

----------
- System: recombinant human SYK360-635 (Homo sapiens)
- Construct: made in house
- Test protocol: Determination of IC50 of Spleen Tyrosine Kinase (SYK) inhibition, 33P ATP filtration assay
- Assay type: biochemical
- Run parameters: SYK aa 360-635 0.5 nM; ATP 20 μM, peptide 5 μM, 0.1% BSA; read-out: SYK_ENZYME_FILTRATION/v1, BSA
Metric: IC50

Compound	System	IC50
Cc1ccc2c(-c3cnc4[nH]cc(C(=O)NC(C)(C)C)c4n3)nn(CCCN(C)C)c2c1	recombinant human SYK360-635 (Homo sapiens)	13.3 nM
Cn1nc(-c2cnc3[nH]cc(C(=O)N[C@@H]4CC[C@H](O)C4)c3n2)c2ccc(Cl)cc21	recombinant human SYK360-635 (Homo sapiens)	23.1 nM
CC(C)(C)NC(=O)c1c[nH]c2ncc(-c3cccc4cc[nH]c34)nc12	recombinant human SYK360-635 (Homo sapiens)	7.35 nM
Cn1nc(-c2cnc3[nH]cc(C(=O)NC4CCC(NS(C)(=O)=O)C4)c3n2)c2ccc(Cl)cc21 (centres unmarked)	recombinant human SYK360-635 (Homo sapiens)	15.9 nM
Cn1nc(-c2cnc3[nH]cc(C(=O)Nc4cccnc4)c3n2)c2ccc(Cl)cc21	recombinant human SYK360-635 (Homo sapiens)	186 nM
Cc1cc2cccc(-c3cnc4[nH]cc(C(=O)NC(C)(C)C)c4n3)c2[nH]1	recombinant human SYK360-635 (Homo sapiens)	64.1 nM

Form: compound = CC(C)(C)NC(=O)c1c[nH]c2ncc(-n3ncc4cc(Cl)ccc43)nc12 ; IC50 = 108 nM

Consider Cn1nc(-c2cnc3[nH]cc(C(=O)NC(C)(C)C)c3n2)c2c1CCCC2 . Its measured IC50 is 12.6 nM

In plain terms, CC(C)(C)NC(=O)c1c[nH]c2ncc(-n3nc(C(F)(F)F)c4c3CCC4)nc12 has a documented IC50 of 1840 nM

Sure, the documented IC50 for CC(NC(=O)c1c[nH]c2ncc(-c3nn(C)c4cc(F)ccc34)nc12)C(O)C1CCOCC1 (single isomer, unassigned) [Example I-203] is 197 nM

The measured IC50 associated with NC1CCC(NC(=O)c2c[nH]c3ncc(-c4nn(C5CCNCC5)c5cc(F)ccc45)nc23)C1 (centres unmarked) reads 30.3 nM

The reported value for Cn1nc(-c2cnc3[nH]cc(C(=O)NC(CO)CO)c3n2)c2ccc(Cl)cc21 in terms of IC50 is 14.6 nM

Measured IC50 of Cn1nc(-c2cnc3[nH]cc(C(=O)NC(C)(C)CN)c3n2)c2ccc(Cl)cc21 : 219 nM

# IC50 (compound: CC(NC(=O)c1c[nH]c2ncc(-c3nn(C)c4cc(Cl)ccc34)nc12)c1cccnc1 (centres unmarked) ) is 69.2 nM
